The following compounds are listed with their measured z-score values.
experiment: MM1S myeloma cell viability, profiling panel, resazurin fluorescence, basal, 24 h, PK04 Diversity Set (AID 1174); conditions: higher = more signal, called active from +8 up or from −8 down;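 further: MM1S multiple myeloma cell line; test concentration not given here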
Parameter Measured: z-score

Compound: O=c1n(Cc2cc3c(cc2Cl)OCO3)c(=O)n2n1CC[C@@H]1C(=NOC[C@@H](O)COCc3ccco3)[C@H]3O[C@H]3[C@@H](O)[C@@H]12
Reading: -0.316
//
Compound: CCOC(=O)[C@H](CC(C)C)NC(=O)CCC1CC(OC(=O)NCc2cccc3ccccc23)CC2(CCCC(COC(=O)NCCOc3ccccc3)O2)O1 (stereo partly drawn)
Reading: 0.572
//
Compound: COC(=O)C1=C(C)N(Cc2ccccc2)[C@]23O[C@](C(=O)OC)(C(=O)N2[C@@H]1c1ccccc1)C(C(=O)OC)=C3C(=O)OC
Reading: 1.08
